These data points were gathered from patent US7585886B2.

- assayedSystem: human CaSR (Homo sapiens)
- Construct: human CaSR open reading frame (ORF) was contained in the pcDNA3.1/Zeo(+) vector; expressed in transfected cells
- Sequence (P41180 20-1078): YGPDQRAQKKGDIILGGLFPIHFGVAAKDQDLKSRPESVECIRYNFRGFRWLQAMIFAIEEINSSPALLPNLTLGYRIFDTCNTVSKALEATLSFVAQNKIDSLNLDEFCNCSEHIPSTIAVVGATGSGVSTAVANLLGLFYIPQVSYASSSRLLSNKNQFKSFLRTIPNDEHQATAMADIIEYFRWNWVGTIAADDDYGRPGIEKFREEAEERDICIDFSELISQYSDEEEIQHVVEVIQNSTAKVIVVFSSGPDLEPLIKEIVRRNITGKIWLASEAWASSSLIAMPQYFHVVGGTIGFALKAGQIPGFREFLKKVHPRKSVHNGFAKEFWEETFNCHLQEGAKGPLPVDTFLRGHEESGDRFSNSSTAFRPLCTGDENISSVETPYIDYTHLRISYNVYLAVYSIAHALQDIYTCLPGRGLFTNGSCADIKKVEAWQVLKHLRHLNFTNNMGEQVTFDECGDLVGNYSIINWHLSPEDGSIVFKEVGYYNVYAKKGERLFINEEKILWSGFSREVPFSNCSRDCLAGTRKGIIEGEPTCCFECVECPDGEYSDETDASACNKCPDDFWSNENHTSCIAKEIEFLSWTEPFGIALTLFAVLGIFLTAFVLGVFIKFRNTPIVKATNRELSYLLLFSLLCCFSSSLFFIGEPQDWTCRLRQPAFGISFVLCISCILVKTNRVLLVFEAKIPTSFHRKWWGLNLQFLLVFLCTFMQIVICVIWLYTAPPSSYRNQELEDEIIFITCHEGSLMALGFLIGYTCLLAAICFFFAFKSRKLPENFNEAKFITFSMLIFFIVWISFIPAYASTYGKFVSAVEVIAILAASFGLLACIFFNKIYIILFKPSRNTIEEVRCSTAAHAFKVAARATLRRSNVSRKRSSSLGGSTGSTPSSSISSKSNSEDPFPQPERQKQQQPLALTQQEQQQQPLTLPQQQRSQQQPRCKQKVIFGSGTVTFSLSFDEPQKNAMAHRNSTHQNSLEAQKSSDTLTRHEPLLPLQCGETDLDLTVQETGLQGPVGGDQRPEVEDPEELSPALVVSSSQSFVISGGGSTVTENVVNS
- assayInfo: Human calcium sensing receptor (CaSR) agonistic activity test (FLIPR, Fluo-3 intracellular Ca2+)
- Type: cell-based
- conditionContext: HEK 293 cell stably expressing human CaSR; 0.5 mM Ca2+ buffer; solvent group 0%, 2 mM Ca2+ group 100%; read-out: EC50 (compound concentration showing 50% activity), human CaSR agonistic activity
Counter-ions that a name gives are not always drawn.
metricName: pEC50
Remember, pEC50 is on a log scale: it is -log10 of the molar concentration.

Q: Given the entry CC(NC[C@H]1CN(C(=O)Oc2ccc(C(=O)O)cc2)C[C@@H]1c1ccccc1)c1csc2ccccc12 (stereo partly shown) , report its measured pEC50.
Ans: 8.28

Q: Given the entry "C[C@@H](NC[C@H]1CN(c2ccc(-c3nnn[nH]3)cc2)C[C@@H]1c1ccccc1)c1cccc2ccccc12" , report its measured pEC50.
Ans: 7.82

Q: Given the entry C[C@@H](NC[C@H]1CN(C(=O)Nc2ccc(C(=O)O)cc2)C[C@@H]1c1ccccc1)c1cccc2ccccc12 [Example 41, hydrochloride] , report its measured pEC50.
Ans: 8.31

Q: Given the entry C[C@@H](NC[C@H]1CN(C(=O)CCCCC(=O)O)C[C@@H]1c1cccc(C(F)(F)F)c1)c1cccc2ccccc12 [Example 48, hydrochloride] , report its measured pEC50.
Ans: 8.40

Q: Given the entry "Cc1cccc([C@H]2CN(c3c(F)cc(C(=O)O)cc3F)C[C@@H]2CN[C@H](C)c2cccc3ccccc23)c1" , report its measured pEC50.
Ans: 7.80

Q: Given the entry "COc1cc(C(=O)O)ccc1NC(=O)N1C[C@H](CN[C@H](C)c2cccc3ccccc23)[C@@H](c2cccc(C)c2)C1" , report its measured pEC50.
Ans: 8.46

Q: Given the entry "C[C@@H](NC[C@H]1CN(C(=O)c2ccc(-c3ccsc3C(=O)O)o2)C[C@@H]1c1ccccc1)c1cccc2ccccc12" , report its measured pEC50.
Ans: 8.28

Q: Given the entry "C[C@@H](NC[C@H]1CN(C(=O)CC(C)(C)CC(=O)O)C[C@@H]1c1ccccc1)c1cccc2ccccc12" , report its measured pEC50.
Ans: 7.55

Q: Given the entry C[C@@H](NC[C@H]1CN(c2c(F)cc(C(=O)O)cc2F)C[C@@H]1c1ccccc1)c1cccc2ccccc12 [Example 31, hydrochloride] , report its measured pEC50.
Ans: 8.44

Q: Given the entry COc1cc(C(=O)O)ccc1NC(=O)N1C[C@H](CN[C@H](C)c2cccc3ccccc23)[C@@H](c2ccccc2)C1 [Example 45, hydrochloride] , report its measured pEC50.
Ans: 8.51

====

- assayedSystem: CYP2D6 (Homo sapiens, UniProt P10635)
- Sequence (P10635 whole entry): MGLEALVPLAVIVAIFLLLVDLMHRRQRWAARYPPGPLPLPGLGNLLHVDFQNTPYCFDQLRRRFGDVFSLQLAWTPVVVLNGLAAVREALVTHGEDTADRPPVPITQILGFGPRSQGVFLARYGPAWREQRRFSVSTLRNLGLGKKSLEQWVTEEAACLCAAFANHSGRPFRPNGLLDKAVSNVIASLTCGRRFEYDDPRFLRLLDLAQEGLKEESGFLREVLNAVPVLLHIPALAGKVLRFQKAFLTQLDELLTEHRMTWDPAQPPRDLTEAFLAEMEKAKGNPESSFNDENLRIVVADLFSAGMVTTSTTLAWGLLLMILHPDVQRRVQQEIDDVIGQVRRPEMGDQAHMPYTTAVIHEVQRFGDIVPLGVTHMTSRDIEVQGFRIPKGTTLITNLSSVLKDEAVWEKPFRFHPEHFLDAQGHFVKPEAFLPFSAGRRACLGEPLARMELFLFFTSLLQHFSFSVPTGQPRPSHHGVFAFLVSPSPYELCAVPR
- assayInfo: Human CYP2D6 inhibition test (fluorescence substrate AMMC)
- Format: in vitro ADME
- Parameters: purchased BD Gentest 456217
- conditionContext: human, recombinant CYP2D6 (BD Gentest, Cat. No. 456217), pH 7.4, probe AMMC 1.5 μM; recombinant CYP2D6, AMMC 1.5 μM, 37° C. 30 minutes; read-out: IC50 (concentration showing 50% inhibition), CYP2D6
Structures can show the parent of a compound that is named as a salt.
metricName: IC50 at 30 min

Q: Given the entry C[C@@H](NC[C@H]1CN(c2c(F)cc(C(=O)O)cc2F)C[C@@H]1c1ccccc1)c1cccc2ccccc12 [Example 31, hydrochloride] , report its measured IC50 at 30 min.
Ans: ≥ 6 µM
